The entries below come with measured TGI values attached.
test system: RPMI-8226 leukemia; assay: NCI tumour cell line growth inhibition, 48 h
Where a SMILES comes first, the peptide text is derived from it.
Reported Endpoint: TGI

Compound: CC(=O)OCC1OC(n2c(C)c(N=Nc3ccccc3)c(C)c(C#N)c2=S)C(OC(C)=O)C(OC(C)=O)C1OC(C)=O (stereo not given)
Endpoint Value: > 100 µM
//
Compound: CCOC(=O)CC(=O)C(=O)NNC1=NCCCN1
Endpoint Value: > 100 µM
//
Compound: Nc1nc(N)c2c(n1)NC(c1ccccc1)CC(/C=C/c1ccc(Cl)cc1)=N2 (stereo not given)
Endpoint Value: 12.7 µM
//
Compound: NCCNc1nc(N2CCCC2)c2nc(Cl)c(NCc3ccccc3)nc2n1
Endpoint Value: 3.84 µM
//
Compound: Nc1ncnc2c1ncn2C1C=CC(CP(=O)(O)O)C1 (stereo not given)
Endpoint Value: > 100 µM
//
Compound: CN[C@]12CC3(C=CC(=O)C=C3)O[C@@]1(Cc1ccc(OC)cc1)N(C)C(=O)N2
Endpoint Value: 3.32 µM
//
Compound: C[C@]12CC[C@@H]3c4ccccc4CC[C@H]3[C@@H]1CC[C@@H]2O
Endpoint Value: > 100 µM
//
Compound: CCOC(=O)c1nc2ccccc2nc1NCc1ccc(OC)cc1
Endpoint Value: > 100 µM
//
Compound: N[C@H]1CCN(c2c(F)cc3c(=O)c(C(=O)O)cn4c3c2Oc2cc3c(ccc5ccccc53)cc2-4)C1
Endpoint Value: 4 µM
//
Compound: O=C1N=C(c2ccccc2)OC1C(=O)c1ccccc1 (stereo not given)
Endpoint Value: > 100 µM
//
Compound: O=C(Nc1ccccc1)Nc1cccc(-n2cc(-c3ccncc3)c(-c3ccc(O)c(Cl)c3)n2)c1
Endpoint Value: 6.13 µM
//
Compound: Cc1n[nH]c(=S)n1/N=C/c1ccc(F)c(Oc2ccccc2)c1
Endpoint Value: > 100 µM
//
Compound: CC(C)CC(NC(=O)C(CC(C)C)NC(=O)C(Cc1cnc[nH]1)NC(=O)C(C)NC(=O)C(NC(=O)C(C)NC(=O)C(Cc1c[nH]c2ccccc12)NC(=O)C(CCC(=O)O)NC(=O)C(N)Cc1ccccc1)C(C)C)C(N)=O (stereo not given) (H-FEWAVAHLL-NH2; configuration not given here)
Endpoint Value: > 100 µM
//
Compound: Clc1ccc(Nc2nc(Cl)c3[nH]cnc3n2)cc1Cl
Endpoint Value: 83 µM
//
Compound: COC(=O)N/N=C(/CCN1CCCC1)CC(c1ccccc1)c1c(O)c2ccccc2oc1=O (stereo not given)
Endpoint Value: > 100 µM
//
Compound: Cn1c(=O)[nH]c2[nH]c3ccccc3c2c1=O
Endpoint Value: > 100 µM
//
Compound: COc1cccc2c(NNc3ccccc3)c3ccc([N+](=O)[O-])cc3nc12
Endpoint Value: > 100 µM
//
Compound: COC(=O)[C@@H]1C[C@H]([Se]c2ccccc2)CN1S(=O)(=O)c1ccc(C)cc1
Endpoint Value: > 100 µM
//
Compound: NCC#CCNCCCN1CC1
Endpoint Value: > 100 µM
//
Compound: CC1(C)C(O)C[C@]23CCC[C@](C)(C[C@@H](O)C12)C3 (stereo not given in full)
Endpoint Value: > 100 µM
